METHOD_NOTES: in vitro
TEST_PARAMETERS: human, microsomes
Below: a set of entries, each annotated with reported microsomal CLint.
RECORDED_METRIC: microsomal CLint (µL/min/mg)

INSERT INTO results (compound_structure, value_qualifier, reported) VALUES
  ('Cc1nc2ccc(-c3ccc(Cl)cc3)cc2c(=O)n1C[C@H]1CCCN(C(C)C)C1', '<', 3),
  ('Nc1ncnc2c1ncn2[C@@H]1O[C@H](CSCCCNC(=O)NCc2ccccc2)[C@@H](O)[C@H]1O', '=', 21.4),
  ('CCNC(=O)c1cnc(N2CCN(C3CCN(Cc4ccc(Cl)cc4F)CC3)[C@@H](CC)C2)c(Cl)c1', '=', 11);

====

Below: a set of entries, each annotated with reported log10 of hepatocyte CLint.
METHOD_NOTES: in vitro
TEST_PARAMETERS: hepatocytes
RECORDED_METRIC: log10 of hepatocyte CLint (log10 of the value in µL/min/1e6 cells)

INSERT INTO results (molecule, reported) VALUES
  ('CC(C)c1nc2ccccc2n1-c1nc(N2CCOCC2)c2nc(OC3CN(C4CCS(=O)(=O)CC4)C3)n(C)c2n1', 1.00),
  ('Cc1ccc(C(=O)N2CC3CNCC(C2)O3)cc1NC(=O)CC12CC3CC(CC(C3)C1)C2', 1.21),
  ('COc1ccccc1CN(C)Cc1cccc(CCNC[C@H](O)c2ccc(O)c3[nH]c(=O)sc23)c1', 1.52),
  ('O=c1cc(-c2cccnc2)[nH]c2cc(Cc3ccccc3)ccc12', 1.70),
  ('CCOc1ccc(-n2c([C@@H](C)N(Cc3cccnc3)C(=O)Cc3ccc(OC(F)(F)F)cc3)nc3ncccc3c2=O)cc1', 1.30),
  ('CNC(=O)c1nc(-c2ccc(Cl)c(S(=O)(=O)Nc3cccc(F)c3F)c2)cnc1N', 1.30),
  ('CCC(CC)NC(=O)c1cn(-c2ccccc2)nc1NS(=O)(=O)c1ccc(C)cc1', 0.85),
  ('CC(=O)N1N=C(c2ccc(Br)cc2)CC1c1ccc(C)cc1 (stereo unspecified)', 1.49),
  ('Cc1nc2ccccn2c1-c1ccnc(N)n1', 1.33),
  ('CCCNC(=O)CSc1ccc(S(=O)(=O)N2CCCC2)cn1', 1.74),
  ('O=C(CN1CCOCC1)Nc1ccc(-c2cccc3c(=O)cc(N4CCOCC4)oc23)cc1-c1ccccc1', 2.09),
  ('O=C(O)Cc1ccc(N2CCC(CN3CCC(Oc4ccc(Cl)c(Cl)c4)CC3)CC2)cc1', 0.95),
  ('C[C@@H]1CN(Cc2nnc(-c3cc(-c4cccc5[nH]ccc45)cc4[nH]ncc34)o2)C[C@H](C)O1', 1.74),
  ('CCOc1ccc2oc(C(=O)NC(CCSC)c3nc4ncccc4[nH]3)c(C)c2c1 (stereo unspecified)', 1.66),
  ('O=C1Nc2ccccc2B(O)N1c1ccccc1', 0.90),
  ('O=C(N[C@H](Cc1ccc(Cl)cc1)C(=O)N1CCC(Cn2cncn2)(C2CCCCC2)CC1)[C@H]1Cc2ccccc2CN1', 1.61),
  ('C=CC(=O)Nc1cccc(Oc2nc(Nc3ccc(N4CCN(C)CC4)cc3OC)ncc2Cl)c1', 1.90),
  ('COCCC(C)n1nc(C)c(C(=O)N[C@@H](C)C(C)(C)C)c1NS(=O)(=O)c1ccc(C)cc1 (stereo partly specified)', 1.00),
  ('CC(C)(Cc1cccc(CC(=O)NCc2cccc(-c3ccc(O)cc3)c2)c1)NC[C@H](O)c1ccc(O)c(NS(C)(=O)=O)c1 [PF-00610355]', 1.57),
  ('CCOc1ccc(CCNCCCSCCNC[C@H](O)c2ccc(O)c3[nH]c(=O)sc23)cc1', 0.90),
  ('COc1cc2nccc(Oc3ccc(NC(=O)C4(C(=O)Nc5ccc(F)cc5)CC4)cc3)c2cc1OC [CABOZANTINIB]', 0.50),
  ('O=c1[nH]c2c(O)ccc([C@@H](O)CNCCCSCCNCCc3ccccc3Cl)c2s1', 1.08),
  ('CN1CCC(Oc2cccc3ncnc(Nc4ccc(OCc5ccccn5)c(Cl)c4)c23)CC1', 1.04);
